measurement.target: α-mannosidase from Jack bean (α-Manase) (Canavalia ensiformis, UniProt C0HJB3)
Construct: purchased
Sequence (C0HJB3 whole entry): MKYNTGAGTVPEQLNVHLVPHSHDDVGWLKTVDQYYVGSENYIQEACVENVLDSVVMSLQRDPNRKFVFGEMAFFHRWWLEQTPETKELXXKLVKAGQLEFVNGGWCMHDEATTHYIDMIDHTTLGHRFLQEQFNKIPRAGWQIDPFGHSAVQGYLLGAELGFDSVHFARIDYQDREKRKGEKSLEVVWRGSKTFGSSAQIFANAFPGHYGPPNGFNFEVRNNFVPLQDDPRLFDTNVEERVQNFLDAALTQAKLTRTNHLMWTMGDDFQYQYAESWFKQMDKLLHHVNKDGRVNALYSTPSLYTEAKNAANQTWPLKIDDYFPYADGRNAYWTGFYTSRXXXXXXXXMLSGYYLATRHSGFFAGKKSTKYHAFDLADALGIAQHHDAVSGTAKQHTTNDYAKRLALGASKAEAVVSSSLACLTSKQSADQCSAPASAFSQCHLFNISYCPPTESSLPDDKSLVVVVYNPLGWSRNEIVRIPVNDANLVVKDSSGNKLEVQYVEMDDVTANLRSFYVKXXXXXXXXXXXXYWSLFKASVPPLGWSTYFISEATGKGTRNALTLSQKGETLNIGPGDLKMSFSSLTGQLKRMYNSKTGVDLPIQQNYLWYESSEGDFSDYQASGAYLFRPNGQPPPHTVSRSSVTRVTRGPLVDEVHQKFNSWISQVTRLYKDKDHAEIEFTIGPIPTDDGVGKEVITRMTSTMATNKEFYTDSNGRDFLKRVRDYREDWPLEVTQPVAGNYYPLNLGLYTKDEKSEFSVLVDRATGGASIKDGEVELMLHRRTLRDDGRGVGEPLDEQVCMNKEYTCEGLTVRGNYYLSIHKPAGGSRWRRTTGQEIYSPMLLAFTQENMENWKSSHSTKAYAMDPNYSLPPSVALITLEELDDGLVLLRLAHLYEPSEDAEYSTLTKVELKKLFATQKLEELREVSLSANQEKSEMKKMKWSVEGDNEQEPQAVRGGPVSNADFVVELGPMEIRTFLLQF
method.description: Commercial glycosidase inhibition: α-mannosidase from Jack bean (α-Manase)
Format: biochemical
cond: mean ± SD, three determinations; competitive; n.i. = no inhibition detected at 1 mM
quantity.measured: Ki (µM)
Your answer is read as µM, so omit the unit and give the number.

## Input May I ask what Ki has been recorded for `OC[C@@H]1[C@@H](O)[C@H](O)[C@@H](O)CN1C(=S)Nc1ccccc1` ?
## Output 294

---

measurement.target: human β-glucocerebrosidase (GCase) (Homo sapiens, UniProt P04062, R534H)
Construct: purchased Genzyme (Genzyme Japan, Tokyo, Japan) / Sanofi Genzyme, Cambridge, MA, USA Cerezyme
Sequence (P04062 40-536 R534H): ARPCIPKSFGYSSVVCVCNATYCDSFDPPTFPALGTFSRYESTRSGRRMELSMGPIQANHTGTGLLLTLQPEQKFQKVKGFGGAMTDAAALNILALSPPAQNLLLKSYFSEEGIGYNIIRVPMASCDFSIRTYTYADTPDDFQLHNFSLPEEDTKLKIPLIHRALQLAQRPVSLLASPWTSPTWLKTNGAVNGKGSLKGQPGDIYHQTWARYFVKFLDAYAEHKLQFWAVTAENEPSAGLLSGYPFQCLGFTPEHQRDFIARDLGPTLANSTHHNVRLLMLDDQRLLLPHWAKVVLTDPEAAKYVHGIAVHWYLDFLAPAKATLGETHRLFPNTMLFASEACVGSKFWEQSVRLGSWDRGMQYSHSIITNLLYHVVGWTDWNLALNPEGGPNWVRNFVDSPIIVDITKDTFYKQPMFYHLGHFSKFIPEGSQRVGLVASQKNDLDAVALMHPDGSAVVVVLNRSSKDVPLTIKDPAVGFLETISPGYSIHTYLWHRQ
method.description: Purified recombinant human GCase inhibition in vitro
Assay type: biochemical
cond: pH 5; purified recombinant enzyme (Cerezyme); 4-MU glucopyranoside substrate; read-out: Ki human GCase, pH 5
Recorded pKi by entry
FYI, pKi means -log10 of a concentration in mol per litre.

Examples with answers:
>  <compound>
CCCCCCCCN=C1OCC2C(O)C(O)C(O)C(O)N12 (stereo not shown)

>  <pKi>
4.26

$$$$
>  <compound>
CCCCCCCCN=C1SCC2C(O)C(O)C(O)C(O)N12 (stereo not shown)

>  <pKi>
5.98

$$$$

## Input # input compound: `CCCCCCCC/N=C1/OC[C@@H]2[C@@H](O)[C@H](O)[C@@H](O)CN12` ; wanted: its pKi
## Output 5.20

## Input Next entry: CCCCCCCCN=C1SCC2C(O)C(O)C(O)CN12 (stereo not shown)
## Output 7.23

---

method.description: pKa determination
Format: physicochemical
quantity.measured: pKa
// no unit, no text: just the number

## Input pKa for CCCCCCCCN=C1SCC2C(O)C(O)C(O)CN12 (stereo not shown) [Compound 4] ?
## Output 8.3

## Input Try this molecule next: CCCCCCCCN=C1SCC2C(O)C(O)C(O)C(O)N12 (stereo not shown) [Compound 2]
## Output 8.3

## Input Can you handle CCCCCCCC/N=C1/OC[C@@H]2[C@@H](O)[C@H](O)[C@@H](O)CN12 [Compound 3] next?
## Output 9.3

## Input And CCCCCCCCN=C1OCC2C(O)C(O)C(O)C(O)N12 (stereo not shown) [Compound 1] ?
## Output 8.9

src = paper PMC6017062
